system_under_test: human EP4 receptor (Homo sapiens (Human), UniProt P35408)
Sequence (P35408 whole entry): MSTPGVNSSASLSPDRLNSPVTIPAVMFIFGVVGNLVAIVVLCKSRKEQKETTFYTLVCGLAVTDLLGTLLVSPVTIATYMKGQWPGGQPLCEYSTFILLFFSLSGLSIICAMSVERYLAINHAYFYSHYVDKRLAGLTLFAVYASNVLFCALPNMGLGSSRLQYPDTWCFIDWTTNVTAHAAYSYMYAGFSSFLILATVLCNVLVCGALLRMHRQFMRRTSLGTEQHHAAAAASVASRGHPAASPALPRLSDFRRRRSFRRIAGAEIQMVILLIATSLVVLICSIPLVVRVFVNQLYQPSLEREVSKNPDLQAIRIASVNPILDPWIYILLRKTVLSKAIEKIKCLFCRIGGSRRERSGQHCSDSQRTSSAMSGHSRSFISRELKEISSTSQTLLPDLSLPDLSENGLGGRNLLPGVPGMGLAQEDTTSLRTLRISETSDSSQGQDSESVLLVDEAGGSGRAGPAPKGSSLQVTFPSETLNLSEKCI
test_description: Test for antagonism of the human EP4 receptor signal (cAMP HTRF)
Assay type: cell-based
measurement_context: cells expressing hEP4, PGE2 at EC80 (0.4 nM), cAMP TR-FRET; read-out: Antagonism hEP4 IC50
Param label: returns met when IC50 < 300 nM, returns not met otherwise, including exact equality.

Request: Given the entry "CCn1c2ccccc2c2cc(-c3nc4cc(C(=O)NS(=O)(=O)c5ccc(C)cn5)ccc4n3CCOC)ccc21" , would its reported IC50 be below 300 nM?
Response: met

Request: Given the entry "CCn1c2ccccc2c2cc(-c3nc4cc(C(=O)O)ccc4n3CC3CC3)cnc21" , would its reported IC50 be below 300 nM?
Response: met

Request: Given the entry "CCn1c2ccccc2c2cc(-c3nc4cc(S(=O)(=O)NC)ccc4n3C)ccc21" , would its reported IC50 be below 300 nM?
Response: not met

Request: Given the entry "CCOC(=O)c1ccc2c(c1)nc(-c1ccc3c(c1)c1ccccc1n3CC)n2CCN(C)C" , would its reported IC50 be below 300 nM?
Response: not met

Request: Given the entry "CCn1c2ccccc2c2cc(-c3nc4cc(C(=O)NCCOC)ccc4n3CC3CC3)ccc21" , would its reported IC50 be below 300 nM?
Response: met

New cases:
Request: Given the entry "CCn1c2ccccc2c2cc(-c3nc4cc(C(=O)NC)ccc4n3C)ccc21" , would its reported IC50 be below 300 nM?
Response: not met

Request: Given the entry "CCn1c2ccccc2c2cc(-c3nc4cc(C(=O)NCCN(C)C)ccc4n3CCOC)ccc21" , would its reported IC50 be below 300 nM?
Response: met

Request: Given the entry "CCn1c2ccccc2c2cc(-c3nc4cc(C(=O)NCCN5CCOCC5)ccc4n3CCOC)ccc21" , would its reported IC50 be below 300 nM?
Response: met

Request: Given the entry "CCOC(=O)c1ccc2c(c1)nc(-c1ccc3c(c1)c1ccccc1n3CC)n2CCN1CCCC1" , would its reported IC50 be below 300 nM?
Response: not met

Request: Given the entry "CCn1c2ccccc2c2cc(-c3nc4cc(C(=O)NS(=O)(=O)c5cccc(Cl)c5)ccc4n3CCOC)ccc21" , would its reported IC50 be below 300 nM?
Response: met

###

system_under_test: UniProt:P35408
test_description: Test for antagonism of the human EP4 receptor signal (cAMP HTRF)
Type: cell-based
measurement_context: cells expressing hEP4, PGE2 at EC80 (0.4 nM), cAMP TR-FRET; read-out: Antagonism hEP4 IC50
Param label: returns TRUE when IC50 < 60 nM, returns FALSE otherwise, including exact equality.

Below, 5 compounds whose answers are already recorded.
Request: Given the entry "CCn1c2ccc(-c3nc4cc(C(=O)O)ccc4n3CC3CC3)cc2c2ccncc21" , would its reported IC50 be below 60 nM?
Response: FALSE

Request: Given the entry "CCn1c2ccccc2c2cc(-c3nc4cc(-n5ccnn5)ccc4n3C)ccc21" , would its reported IC50 be below 60 nM?
Response: FALSE

Request: Given the entry "CCn1c2ccccc2c2cc(-c3nc4cc(C(=O)O)ccc4n3C[C@@H]3COCCO3)ccc21" , would its reported IC50 be below 60 nM?
Response: FALSE

Request: Given the entry CCn1c2ccccc2c2cc(-c3nc4cc(C(=O)O)ccc4n3CC(O)C3CC3)ccc21 (centres unmarked) , would its reported IC50 be below 60 nM?
Response: TRUE

Request: Given the entry "CCn1c2ccccc2c2cc(-c3nc4cc(C(=O)O)ccc4n3CCN(C)C)ccc21" , would its reported IC50 be below 60 nM?
Response: FALSE

New cases:
Request: Given the entry "CCOC(=O)c1ccc2c(c1)nc(-c1ccc3c(c1)c1ccccc1n3CCOC)n2CCOC" , would its reported IC50 be below 60 nM?
Response: FALSE

Request: Given the entry CCn1c2ccccc2c2cc(-c3nc4cc(C(=O)O)ccc4n3CC3CCO3)ccc21 (centres unmarked) , would its reported IC50 be below 60 nM?
Response: TRUE

Request: Given the entry "C=CCn1c(-c2ccc3c(c2)c2ccccc2n3CC)nc2cc(C(=O)N(C)C)ccc21" , would its reported IC50 be below 60 nM?
Response: FALSE

Request: Given the entry "CCn1c2ccccc2c2cc(-c3nc4cc(C(=O)NS(=O)(=O)c5ccccc5C)ccc4n3CCOC)ccc21" , would its reported IC50 be below 60 nM?
Response: TRUE

Request: Given the entry "CCn1c2ccc(-c3nc4cc(C(=O)O)ccc4n3CCOC)cc2c2cccc(F)c21" , would its reported IC50 be below 60 nM?
Response: TRUE

Request: Given the entry "CCn1c2ccccc2c2cc(-c3nc4cc(C(=O)NS(=O)(=O)c5ccc6ccccc6c5)ccc4n3CCOC)ccc21" , would its reported IC50 be below 60 nM?
Response: FALSE

Request: Given the entry "CCCn1c2ccccc2c2cc(-c3nc4cc(C(=O)O)ccc4n3CCOC)ccc21" , would its reported IC50 be below 60 nM?
Response: TRUE

Request: Given the entry "CCn1c2ccccc2c2cc(-c3nc4cc(C(=O)O)ccc4n3CCOC)ccc21" , would its reported IC50 be below 60 nM?
Response: TRUE

Request: Given the entry "CCn1c2ccccc2c2cc(-c3nc4cc(C(=O)NS(=O)(=O)CCc5ccccc5Cl)ccc4n3CCOC)ccc21" , would its reported IC50 be below 60 nM?
Response: FALSE

Request: Given the entry "CCn1c2ccccc2c2cc(-c3nc4cc(C(=O)O)ccc4n3CC3COC3)ccc21" , would its reported IC50 be below 60 nM?
Response: TRUE

Request: Given the entry CCn1c2ccccc2c2cc(-c3nc4cc(C(=O)O)ccc4n3CC3CCCO3)ccc21 (centres unmarked) , would its reported IC50 be below 60 nM?
Response: TRUE

Request: Given the entry "CCn1c2ccccc2c2cc(-c3nc4cc(C(=O)NS(=O)(=O)Cc5ccc(C(F)(F)F)cc5)ccc4n3CCOC)ccc21" , would its reported IC50 be below 60 nM?
Response: FALSE

Source: patent US9708311B2
